System: SNU-C2B (Colorectal Carcinoma)
ASSAY_PROCEDURE: combination Emax (second highest fraction inhibited in the dose matrix, 72 h); higher = more inhibition; extreme values may be limits of the assay
ATTRIBUTE_MEASURED: combination Emax

Dear colleague, I am looking for the recorded combination Emax of the following compound: COc1cc2ncnc(Nc3ccc(F)c(Cl)c3)c2cc1OCCCN1CCOCC1 [Gefitinib] + CC(C)n1c(=O)n(C)c2cnc3cc(F)c(-c4ccc(OCCCN5CCCCC5)nc4)cc3c21 [AZD1390] (first compound max 10 µM, 7x7, partner max 0.3 µM)
0.246

For NC1(C(=O)N[C@@H](CCO)c2ccc(Cl)cc2)CCN(c2ncnc3[nH]ccc23)CC1 [Capivasertib] + CC(=O)c1c(C)c2cnc(Nc3ccc(N4CCNCC4)cn3)nc2n(C2CCCC2)c1=O [Palbociclib] (first compound max 10 µM, 7x7, partner max 10 µM) then?
0.424

For CCN(CCO)CCCOc1ccc2c(Nc3cc(CC(=O)Nc4cccc(F)c4)[nH]n3)ncnc2c1 [AZD2811] + C=CCn1c(=O)c2cnc(Nc3ccc(N4CCN(C)CC4)cc3)nc2n1-c1cccc(C(C)(C)O)n1 [AZD1775] (first compound max 1 µM, partner max 1 µM) then?
0.554

For COc1cc2c(cc1OCCCCCOc1cc3c(cc1OC)C(=O)N1C=C(C)C[C@H]1C=N3)N=C[C@@H]1CC(C)=CN1C2=O [SG3199] + O=C(c1cc(Cc2n[nH]c(=O)c3ccccc23)ccc1F)N1CCN(C(=O)C2CC2)CC1 [Olaparib] (first compound max 0.001 µM, 7x7, partner max 10 µM) then?
0.249

For CC(=O)Nc1cccc(-n2c(=O)n(C3CC3)c(=O)c3c(Nc4ccc(I)cc4F)n(C)c(=O)c(C)c32)c1 [Trametinib] + Cc1nc(-c2cn3c(n2)-c2ccc(-c4cnn(C(C)(C)C(N)=O)c4)cc2OCC3)n(C(C)C)n1 [Taselisib] (first compound max 1 µM, 7x7, partner max 10 µM) then?
0.676

For C[C@@H](c1ccc2nccn2c1)n1nnc2ncc(-c3cnn(C)c3)nc21 [Savolitinib] + CN(CC[C@H](CSC1=CC=CC=C1)NC2=C(C=C(C=C2)S(=O)(=O)NC(=O)C3=CC=C(C=C3)N4CCC(CC4)[C@H](C5=CC=CC=C5C6=CC=C(C=C6)Cl)O)S(=O)(=O)C(F)(F)F)CCO [AZD4320] (first compound max 1 µM, 7x7, partner max 1 µM) then?
0.212

For Cc1cc2ncnn2cc1Nc1ncc2c(n1)n(C1CCOCC1)c(=O)n2C [AZD7648] + C=CCn1c(=O)c2cnc(Nc3ccc(N4CCN(C)CC4)cc3)nc2n1-c1cccc(C(C)(C)O)n1 [AZD1775] (first compound max 10 µM, partner max 1 µM) then?
0.551

---

Tested on: SAT (Head and Neck Carcinoma)
ASSAY_PROCEDURE: combination Emax (second highest fraction inhibited in the dose matrix, 72 h); higher = more inhibition; extreme values may be limits of the assay
ATTRIBUTE_MEASURED: combination Emax

Record CC1(C)CCC(CN2CCN(c3ccc(C(=O)NS(=O)(=O)c4ccc(NCC5CCOCC5)c([N+](=O)[O-])c4)c(Oc4cnc5[nH]ccc5c4)c3)CC2)=C(c2ccc(Cl)cc2)C1 [Venetoclax] + C=CCn1c(=O)c2cnc(Nc3ccc(N4CCN(C)CC4)cc3)nc2n1-c1cccc(C(C)(C)O)n1 [AZD1775] (first compound max 1 µM, partner max 1 µM) : what is its combination Emax with SAT (Head and Neck Carcinoma)?
0.545

For COc1cccc2c1C(=O)c1c(O)c3c(c(O)c1C2=O)C[C@@](O)(C(=O)CO)C[C@@H]3O[C@H]1C[C@H](N)[C@H](O)[C@H](C)O1 [Doxorubicin] + Cc1cc2ncnn2cc1Nc1ncc2c(n1)n(C1CCOCC1)c(=O)n2C [AZD7648] (first compound max 1 µM, 7x7, partner max 10 µM) then?
0.616

For CC1(C)CCC(CN2CCN(c3ccc(C(=O)NS(=O)(=O)c4ccc(NCC5CCOCC5)c([N+](=O)[O-])c4)c(Oc4cnc5[nH]ccc5c4)c3)CC2)=C(c2ccc(Cl)cc2)C1 [Venetoclax] + C[C@@H](Nc1cc(F)cc(F)c1)c1cc(C(=O)N(C)C)cc2c(=O)cc(N3CCOCC3)oc12 [AZD8186] (first compound max 1 µM, 7x7, partner max 3 µM) then?
0.345

---

Tested on: NCI-H1963 (Small Cell Lung Carcinoma);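 also: after 72 h of two-drug dosing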
ASSAY_PROCEDURE: Bliss excess, mean over the matrix (fraction); higher = more synergy
ATTRIBUTE_MEASURED: Bliss excess
# print the numeric value only

Dear colleague, I am looking for the recorded Bliss excess of the following compound: CN(CCO)CC[C@H](CSc1ccccc1)Nc1ccc(S(=O)(=O)NC(=O)c2ccc(N3CCC([C@@H](O)c4ccccc4-c4ccc(Cl)cc4)CC3)cc2)cc1S(=O)(=O)C(F)(F)F [AZD4320] + C1CN(CCC1(C(=O)N[C@@H](CCO)C2=CC=C(C=C2)Cl)N)C3=NC=NC4=C3C=CN4 [Capivasertib] (first compound max 1 µM, 7x7, partner max 3 µM)
0.0172

For CCc1c2c(nc3ccc(O)cc13)-c1cc3c(c(=O)n1C2)COC(=O)[C@]3(O)CC [SN-38] + O=C(c1cc(Cc2n[nH]c(=O)c3ccccc23)ccc1F)N1CCN(C(=O)C2CC2)CC1 [Olaparib] (first compound max 0.3 µM, 7x7, partner max 10 µM) then?
0.099

For C=CCn1c(=O)c2cnc(Nc3ccc(N4CCN(C)CC4)cc3)nc2n1-c1cccc(C(C)(C)O)n1 [AZD1775] + C[C@@H]1COCCN1C2=NC(=NC(=C2)C3(CC3)[S@](=N)(=O)C)C4=C5C=CNC5=NC=C4 [AZD6738] (first compound max 1 µM, partner max 10 µM) then?
0.036

For Cc1c2c(nn1C)CSCc1cc(n(C)n1)CSc1cc(c3ccccc3c1)OCCCc1c(C(=O)O)n(C)c3c-2c(Cl)ccc13 [AZD5991] + C[C@@H]1COCCN1C2=NC(=NC(=C2)C3(CC3)[S@](=N)(=O)C)C4=C5C=CNC5=NC=C4 [AZD6738] (first compound max 1 µM, 7x7, partner max 10 µM) then?
0.0858

For CC1(C)CCC(CN2CCN(c3ccc(C(=O)NS(=O)(=O)c4ccc(NCC5CCOCC5)c([N+](=O)[O-])c4)c(Oc4cnc5[nH]ccc5c4)c3)CC2)=C(c2ccc(Cl)cc2)C1 [Venetoclax] + C[C@@H]1COCCN1C2=NC(=NC(=C2)C3(CC3)[S@](=N)(=O)C)C4=C5C=CNC5=NC=C4 [AZD6738] (first compound max 1 µM, 7x7, partner max 10 µM) then?
0.0004

For CC(=O)Nc1cccc(-n2c(=O)n(C3CC3)c(=O)c3c(Nc4ccc(I)cc4F)n(C)c(=O)c(C)c32)c1 [Trametinib] + Cc1nc(-c2cn3c(n2)-c2ccc(-c4cnn(C(C)(C)C(N)=O)c4)cc2OCC3)n(C(C)C)n1 [Taselisib] (first compound max 1 µM, 7x7, partner max 10 µM) then?
0.0452

---

System: MS-1 (Small Cell Lung Carcinoma)
ASSAY_PROCEDURE: combination Emax (second highest fraction inhibited in the dose matrix, 72 h); higher = more inhibition; extreme values may be limits of the assay
Label false (0) if combination Emax falls below 0.3; label true (1) in every other case.

Is the recorded value of combination Emax equal to or greater than 0.3 for this compound? Cc1cc2ncnn2cc1Nc1ncc2c(n1)n(C1CCOCC1)c(=O)n2C [AZD7648] + CN(C)CCCOc1ccc(-c2ccc3ncc4c(c3c2)n(C2CCOCC2)c(=O)n4C)cn1 [AZD0156] (first compound max 10 µM, 7x7, partner max 1 µM)
true (1)

For NC1(C(=O)N[C@@H](CCO)c2ccc(Cl)cc2)CCN(c2ncnc3[nH]ccc23)CC1 [Capivasertib] + C[C@@H]1COCCN1C2=NC(=NC(=C2)C3(CC3)[S@](=N)(=O)C)C4=C5C=CNC5=NC=C4 [AZD6738] (first compound max 10 µM, 7x7, partner max 10 µM) then?
true (1)

For CN(CCO)CC[C@H](CSc1ccccc1)Nc1ccc(S(=O)(=O)NC(=O)c2ccc(N3CCC([C@@H](O)c4ccccc4-c4ccc(Cl)cc4)CC3)cc2)cc1S(=O)(=O)C(F)(F)F [AZD4320] + CC(=O)O[C@H]1C(=O)[C@@]2(C)[C@H]([C@H](OC(=O)c3ccccc3)[C@]3(O)C[C@H](OC(=O)[C@H](O)[C@@H](NC(=O)c4ccccc4)c4ccccc4)C(C)=C1C3(C)C)[C@]1(OC(C)=O)CO[C@@H]1C[C@@H]2O [Paclitaxel] (first compound max 1 µM, 7x7, partner max 3 µM) then?
true (1)

For COc1cc2c(cc1OCCCCCOc1cc3c(cc1OC)C(=O)N1C=C(C)C[C@H]1C=N3)N=C[C@@H]1CC(C)=CN1C2=O [SG3199] + O=C(c1cc(Cc2n[nH]c(=O)c3ccccc23)ccc1F)N1CCN(C(=O)C2CC2)CC1 [Olaparib] (first compound max 0.001 µM, 7x7, partner max 10 µM) then?
true (1)

For Cc1cc2ncnn2cc1Nc1ncc2c(n1)n(C1CCOCC1)c(=O)n2C [AZD7648] + C=CCn1c(=O)c2cnc(Nc3ccc(N4CCN(C)CC4)cc3)nc2n1-c1cccc(C(C)(C)O)n1 [AZD1775] (first compound max 10 µM, partner max 1 µM) then?
true (1)

For CC(=O)c1c(C)c2cnc(Nc3ccc(N4CCNCC4)cn3)nc2n(C2CCCC2)c1=O [Palbociclib] + Cc1c2c(nn1C)CSCc1cc(n(C)n1)CSc1cc(c3ccccc3c1)OCCCc1c(C(=O)O)n(C)c3c-2c(Cl)ccc13 [AZD5991] (first compound max 10 µM, 7x7, partner max 1 µM) then?
true (1)

For Cn1cnc2c(F)c(Nc3ccc(Br)cc3Cl)c(C(=O)NOCCO)cc21 [Selumetinib] + CCN(CCO)CCCOc1ccc2c(Nc3cc(CC(=O)Nc4cccc(F)c4)[nH]n3)ncnc2c1 [AZD2811] (first compound max 10 µM, 7x7, partner max 1 µM) then?
false (0)

For CN(C)CCCOc1ccc(-c2ccc3ncc4c(c3c2)n(C2CCOCC2)c(=O)n4C)cn1 [AZD0156] + CCN(CCO)CCCOc1ccc2c(Nc3cc(CC(=O)Nc4cccc(F)c4)[nH]n3)ncnc2c1 [AZD2811] (first compound max 1 µM, 7x7, partner max 1 µM) then?
false (0)

For CC1(C)CCC(CN2CCN(c3ccc(C(=O)NS(=O)(=O)c4ccc(NCC5CCOCC5)c([N+](=O)[O-])c4)c(Oc4cnc5[nH]ccc5c4)c3)CC2)=C(c2ccc(Cl)cc2)C1 [Venetoclax] + CN(C)CCCOc1ccc(-c2ccc3ncc4c(c3c2)n(C2CCOCC2)c(=O)n4C)cn1 [AZD0156] (first compound max 1 µM, 7x7, partner max 1 µM) then?
true (1)

For COc1cc2ncnc(Nc3ccc(F)c(Cl)c3)c2cc1OCCCN1CCOCC1 [Gefitinib] + CC(C)n1c(=O)n(C)c2cnc3cc(F)c(-c4ccc(OCCCN5CCCCC5)nc4)cc3c21 [AZD1390] (first compound max 10 µM, 7x7, partner max 0.3 µM) then?
false (0)

For C[C@@H](Nc1cc(F)cc(F)c1)c1cc(C(=O)N(C)C)cc2c(=O)cc(N3CCOCC3)oc12 [AZD8186] + C1CN(CCC1(C(=O)N[C@@H](CCO)C2=CC=C(C=C2)Cl)N)C3=NC=NC4=C3C=CN4 [AZD5363] (first compound max 10 µM, 7x7, partner max 10 µM) then?
false (0)

For CC1(C)CCC(CN2CCN(c3ccc(C(=O)NS(=O)(=O)c4ccc(NCC5CCOCC5)c([N+](=O)[O-])c4)c(Oc4cnc5[nH]ccc5c4)c3)CC2)=C(c2ccc(Cl)cc2)C1 [Venetoclax] + COc1cc(Nc2ncc3c(n2)-c2ccc(Cl)cc2C(c2c(F)cccc2OC)=NC3)ccc1C(=O)O [Alisertib] (first compound max 1 µM, 7x7, partner max 10 µM) then?
true (1)

For COc1cccc(OCCCN)c1-c1cc(Nc2cnc(C#N)cn2)n[nH]1 [Prexasertib] + C=CCn1c(=O)c2cnc(Nc3ccc(N4CCN(C)CC4)cc3)nc2n1-c1cccc(C(C)(C)O)n1 [AZD1775] (first compound max 1 µM, partner max 1 µM) then?
true (1)
